# study-system: human cathepsin S (Homo sapiens (Human))
# Sequence (P25774 115-331): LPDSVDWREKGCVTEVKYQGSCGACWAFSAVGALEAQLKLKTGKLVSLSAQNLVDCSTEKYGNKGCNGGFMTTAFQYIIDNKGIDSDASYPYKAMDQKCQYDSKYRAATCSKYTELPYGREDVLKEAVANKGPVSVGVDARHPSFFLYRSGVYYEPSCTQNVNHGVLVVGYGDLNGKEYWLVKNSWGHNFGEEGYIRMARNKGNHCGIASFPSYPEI
Counter-ions that a name gives are not always drawn.
Classification scheme (IC50): b0 (below 2 nM), b1 (2 nM to below 3 nM), b2 (3 nM or more)

These recorded examples may help you get a feel for the data.
compound	study-system	class-assignment
CN1CCC[C@H]1C(=O)N1CCC(CCOc2ccc(-c3nc(C#N)nc4c3ncn4CC3CCOC3)cc2C(F)(F)F)CC1 (some centres unmarked)	human cathepsin S (Homo sapiens (Human))	b1
Cn1ccc2c(-c3ccc(OCCC4CCN(C5CC5)CC4)c(C(F)(F)F)c3)nc(C#N)nc21	human cathepsin S (Homo sapiens (Human))	b1
Cn1cnc2c(-c3cnc(OCCC4CCN(C(C)(C)C)CC4)c(C(F)(F)F)c3)nc(C#N)nc21	human cathepsin S (Homo sapiens (Human))	b2
CN(C)C(=O)CN1CCC(CCOc2ccc(-c3nc(C#N)nc4c3ccn4CC3CCCO3)cc2C(F)(F)F)CC1 (centres unmarked) [Example 16, monohydrochloride]	human cathepsin S (Homo sapiens (Human))	b2
Cc1nc2c(-c3ccc(OCCC4CCNCC4)c(C(F)(F)F)c3)nc(C#N)nc2n1C [Example 10, monohydrochloride]	human cathepsin S (Homo sapiens (Human))	b1
CN(C)C(=O)CN1CCC(CCOc2ccc(-c3nc(C#N)nc4c3ccn4C)cc2C(F)(F)F)CC1	human cathepsin S (Homo sapiens (Human))	b1

Kindly consider the entry below.
Entry `CN1CCC(CCOc2ncc(-c3nc(C#N)nc4c3ncn4C)cc2C(F)(F)F)CC1` belongs to which category? b0
